- System: ACHN
- experiment: NCI tumour cell line growth inhibition, 48 h
The source made the active and inactive calls. No stated cut-off is given here; in the data, active = GI50 up to about 1.1 µM and inactive = higher.
measured.quantity: GI50

molecule	measured.quantity	data.value
CCN(CC)CCCNc1ccc2nnn3c4ccc(O)cc4c(=O)c1c23	GI50	3.34 µM (inactive)
O=C(c1ccccc1)c1cc(-c2ccccc2)c(-c2ccccc2)[nH]c(=O)c1=O	GI50	63.5 µM (inactive)
COc1cc2c(c(O)c1OC)C(O)C1CCC(=O)N1C2c1ccc2c(c1)OCO2 (stereo not drawn)	GI50	> 100 µM (inactive)

###

- System: ACHN
- experiment: NCI tumour cell line growth inhibition, 48 h
Calls of active or inactive are those of the source. No stated cut-off is given here; in the data, active = GI50 up to about 1.1 µM and inactive = higher.
Labels: class 1 for active, class 0 for inactive

structure.smiles.string	target.or.test.system	class.name
O=C1C=C(c2ccccc2)O/C1=C\C(=O)c1ccc(Cl)cc1	ACHN	class 0
O=c1ccc2nc3ccc(O)cc3oc-2c1	ACHN	class 0
CN(C)CCNC(=O)c1cccc2nc3ccc4cccnc4c3nc12	ACHN	class 1

###

Parameter GI50: see the listing below.
- System: NCI-H460
- experiment: NCI tumour cell line growth inhibition, 48 h
Active and inactive are the calls of the source. No stated cut-off is given here; in the data, active = GI50 up to about 1.1 µM and inactive = higher.
measured.quantity: GI50

compound	data.value
O=C(/C=C/c1ccc2c(c1)OCO2)CC(=O)C(=O)c1c[nH]c2ccccc12	33.7 µM (inactive)
COc1ccc(/C=C/C(=O)C(C)C)cc1	26.8 µM (inactive)
COc1cc2c(c(O)c1OC)C(O)C1CCC(=O)N1C2c1ccc2c(c1)OCO2 (stereo not given)	> 100 µM (inactive)
COC(=O)CC1NC(=O)C1C(C)(OC)OC (stereo not given)	> 100 µM (inactive)
CCCCn1c2c(n(CCCC)c1=[Se])-c1c(n(CCCC)c(=[Se])n1CCCC)S[Se][Se]S2	7.6 µM (inactive)

###

- Test system: DU-145
- experiment: NCI tumour cell line growth inhibition, 48 h
The source made the active and inactive calls. Cut-off read from the data, not from the text of the source: active = GI50 up to about 1.1 µM and inactive = higher.
GI50 values, listed per item
measured.quantity: GI50

compound	target.or.test.system	measured.quantity	data.value
CC(C)CC1NC(=O)CCC(NC(=O)C(Cc2ccc(O)cc2)NC(=O)OCc2ccccc2)C(=O)NC(Cc2ccccc2)C(=O)NC(Cc2ccccc2)NC1=O (centres undefined)	DU-145	GI50	> 100 µM (inactive)
O=C1NC(Cc2c[nH]c3ccccc23)C(=O)N2C(C3CCCCC3)c3[nH]c4ccccc4c3C[C@@H]12 (some centres undefined)	DU-145	GI50	24.3 µM (inactive)
COC(=O)[C@@]12C(=O)C(C)C(=O)[C@]1(C)C(C)=C[C@H]1[C@]3(C=O)CC[C@H](OC(C)=O)C(C)(C)[C@H]3CC[C@@]12C (some centres undefined)	DU-145	GI50	> 100 µM (inactive)
Cc1ccc2c(c1)C(=O)c1[nH]c3ccc(F)cc3c1CO2	DU-145	GI50	> 100 µM (inactive)

###

Parameter: GI50. Scope: all listed entries.
- System: CAKI-1
- experiment: NCI tumour cell line growth inhibition, 48 h
Activity calls are given as the source filed them. No stated cut-off is given here; in the data, active = GI50 up to about 1.1 µM and inactive = higher. Square brackets hold non-standard residues; d marks the D form. Peptide text beside a SMILES is read from it. * marks the point of attachment. ξ: configuration not given here. ξW = NC(Cc1c[nH]c2ccccc12)C(=O)O; X29 = O=C(O)[C@H]1CCC[C@H]1N*; ξF = NC(Cc1ccccc1)C(=O)O; Boc = CC(C)(C)OC(=O)*; ξK = NCCCCC(N)C(=O)O; ξT = CC(O)C(N)C(=O)O; tBu = CC(C)(C)*
measured.quantity: GI50

compound	measured.quantity	data.value
CCC(C)C1NC(=O)C(NC(=O)c2c3nc4c(C(=O)NC5C(=O)NC(C(C)CC)C(=O)N6CCCC6C(=O)N(C)CC(=O)N(C)C(C(C)C)C(=O)OC5C)ccc(C)c4oc-3c(C)c(=O)c2O)C(C)OC(=O)C(C(C)C)N(C)C(=O)CN(C)C(=O)C2CCCN2C1=O (stereo not drawn)	GI50	10.3 µM (inactive)
CC(=O)NC1=C(C)C(=O)c2c(nc3n2CCC3O)C1=N (stereo not drawn)	GI50	13.4 µM (inactive)
C=C1C(=O)OC2/C=C(\C)CC/C=C(\C)CC(OC(=O)/C(=C/CO)CO)[C@@H]12 (stereo partly drawn)	GI50	4.12 µM (inactive)
CCOC(=O)C1=C(Nc2ccccc2)SCC1=O	GI50	> 100 µM (inactive)
CN(C)c1ccc2nc(CC(O)(C(F)(F)F)C(F)(F)F)ccc2c1	GI50	> 10 µM (inactive)
O=C(CCCNc1nc(-c2ccccc2)cs1)c1cccs1	GI50	> 100 µM (inactive)
N#C/C(=C\c1ccncc1)c1csc2ccccc12	GI50	27.4 µM (inactive)
CNC(=O)c1cc2nc3ccccc3c(=O)n2c2ccccc12	GI50	> 10 µM (inactive)
CC(OC(C)(C)C)C(NC(=O)C(CCCCNC(=O)OC(C)(C)C)NC(=O)C(Cc1c[nH]c2ccccc12)NC(=O)C(N)Cc1ccccc1)C(=O)NC(Cc1ccccc1)C(=O)N[C@@H]1CCC[C@@H]1C(=O)O (stereo partly drawn) (H-[ξF][ξW][ξK](Boc)[ξT](tBu)[ξF]-X29)	GI50	> 100 µM (inactive)
COc1ccc(/C=C/C(=O)C(C)C)cc1	GI50	44.8 µM (inactive)
CC(C)[C@@H](C)[C@@]1(C)C[C@@H]1[C@@H](C)[C@H]1CC[C@@H]([C@@H]2CC=C3C[C@@H](O)CC[C@]3(C)C2=O)[C@]1(C)CCO	GI50	12.8 µM (inactive)
CCOC(=O)NC(Nc1ncn(C(NC(=O)OCC)(C(F)(F)F)C(F)(F)F)n1)(C(F)(F)F)C(F)(F)F	GI50	> 100 µM (inactive)
O=C(NC1(C(=O)O)CCCC1)c1ccccc1	GI50	> 100 µM (inactive)
COC(=O)/C(=N/NC(N)=O)C(C(=O)OC)C(=O)C(=O)Nc1ccc(Cl)cc1 (stereo not drawn)	GI50	> 100 µM (inactive)
CC(=O)O/N=C/c1ncccc1OC(C)=O	GI50	> 100 µM (inactive)
O=C(O)c1ccccc1/C=N\N=C1NCCN1	GI50	> 100 µM (inactive)
O=c1[nH]c(Nc2nc3ccccc3[nH]2)nc(O)c1-c1ccccc1	GI50	> 100 µM (inactive)
CCOC(=O)c1cn2c(n1)sc1cc(OC)ccc12	GI50	13.5 µM (inactive)
c1ccc(SC(CCCCOC2CCCCO2)Sc2ccccc2)cc1 (stereo not drawn)	GI50	92.7 µM (inactive)
CN(C)CCNC(=O)c1cccc2nc3c4ccccc4c4ccccc4c3nc12	GI50	17.6 µM (inactive)
C[n+]1c(-c2ccc(/C=N/NC(=O)C(=O)N/N=C/c3ccc(-c4cn5ccccc5[n+]4C)cc3)cc2)cn2ccccc21	GI50	> 100 µM (inactive)
O=C(CN1C(=O)CC(c2ccccc2)(c2ccccc2)C1=O)N1CCN(CCO)CC1	GI50	> 100 µM (inactive)
ClC1c2ccccc2C2(c3ccccc3)OOC1(c1ccccc1)O2 (stereo not drawn)	GI50	2.37 µM (inactive)
C=[N+](CNC(=O)CNC(=O)C(Cc1ccc([N+](=O)[O-])cc1)NC(=O)OC(C)(C)C)C(=O)CNC(=O)C(Cc1ccc([N+](=O)[O-])cc1)NC(=O)OC(C)(C)C (stereo not drawn)	GI50	> 100 µM (inactive)
C=C1CC[C@H](O)C(C)(C)[C@@H]1CC/C(C)=C/CC/C=C(\C)CC/C=C(\C)CCC=C(C)C	GI50	> 100 µM (inactive)
COC1CC2C3/C(=N/Nc4ccc([N+](=O)[O-])cc4[N+](=O)[O-])CCC2(C)C3C1 (stereo not drawn)	GI50	> 10 µM (inactive)
CC(C)CNC(=O)Cn1c(-c2ccccc2)cc2ccccc21	GI50	> 100 µM (inactive)
COc1cc2c(c(O)c1OC)C(O)C1CCC(=O)N1C2c1ccc2c(c1)OCO2 (stereo not drawn)	GI50	> 100 µM (inactive)
CC(C)(C)C(=O)C(C(=O)C(C)(C)C)C(=O)C(C)(C)C	GI50	> 100 µM (inactive)
NC(=O)NC1NC(=O)NC1=O (stereo not drawn) [ALLANTOIN]	GI50	> 100 µM (inactive)
O=C(/C=C/c1ccc2c(c1)OCO2)CC(=O)C(=O)c1c[nH]c2ccccc12	GI50	39.5 µM (inactive)
CCOC(=O)C[C@@H](C)[C@]1(C(=O)OC)CCCC1=O	GI50	> 100 µM (inactive)
Nc1ncc(Cl)c(NCC2(CO)CC(CCc3ccccc3)C2)n1 (stereo not drawn)	GI50	12 µM (inactive)
